# Tested on: HL-60(TB) leukemia
# METHOD: NCI tumour cell line growth inhibition, 48 h
The following compounds are shown together with reported TGI values.
REPORTED_PROPERTY: TGI

INSERT INTO assay_data (smiles, test_system, reported_property, endpoint_value) VALUES
  ('O=C1/C(=C/c2cccs2)CCC/C1=C\c1cccs1', 'HL-60(TB) leukemia', 'TGI', '> 100 µM'),
  ('CC/C(Cl)=N\OC(=O)Nc1ccc(C#N)cc1', 'HL-60(TB) leukemia', 'TGI', '6.2 µM'),
  ('O/N=C\c1cc(O)c(O)c(/C=N/O)c1', 'HL-60(TB) leukemia', 'TGI', '> 100 µM'),
  ('CC(=O)c1cn(-c2ccc(Cl)cc2)c(=O)c2c(N)n[nH]c12', 'HL-60(TB) leukemia', 'TGI', '> 100 µM'),
  ('Fc1ccc(-c2ncn(C3CCNCC3)c2-c2ccnc(Oc3cccc(F)c3)n2)cc1', 'HL-60(TB) leukemia', 'TGI', '> 25 µM'),
  ('S=C1C=C(c2ccccc2)Sc2ccccc2N1', 'HL-60(TB) leukemia', 'TGI', '> 100 µM'),
  ('Cc1ccc2[nH]c3c(C)c4ccncc4c(C)c3c2c1', 'HL-60(TB) leukemia', 'TGI', '3.42 µM'),
  ('COc1ccc([C@H]2O[C@@H](CO)C[C@]2(O)c2ccc(OC)cc2)cc1', 'HL-60(TB) leukemia', 'TGI', '> 100 µM'),
  ('O=C(NCc1ccccc1)c1cnc(Cl)cn1', 'HL-60(TB) leukemia', 'TGI', '> 100 µM'),
  ('COc1cc(C2C(C(=O)Nc3ccccc3)=C(C)NC(C)=C2C(=O)Nc2ccccc2)ccc1O', 'HL-60(TB) leukemia', 'TGI', '54.2 µM'),
  ('Cn1c(O)c(C(=O)Nc2ccc([N+](=O)[O-])cc2)c(=O)n(C)c1=S', 'HL-60(TB) leukemia', 'TGI', '> 100 µM');

====

# Tested on: SK-MEL-28 melanoma
# METHOD: NCI tumour cell line growth inhibition, 48 h
Examples of compounds with documented GI50 follow.
REPORTED_PROPERTY: GI50

INSERT INTO measurements (compound, reported_property, endpoint_value) VALUES
  ('COc1ccc2c3c(c(OCCCN(C)C)nc2c1)-c1ccc(Cl)cc1C3=O', 'GI50', '12.1 µM'),
  ('O=C(/C=C/c1cccc(Cl)c1)c1ccc(Cl)cc1Cl', 'GI50', '9.69 µM'),
  ('CCSC1=CC(=O)c2ccccc2C1=O', 'GI50', '14.4 µM'),
  ('COc1ccc([C@H]2O[C@@H](CO)C[C@]2(O)c2ccc(OC)cc2)cc1', 'GI50', '> 100 µM'),
  ('CC(=O)N1CC(F)(F)c2c(Sc3ncc(N4CCC5(CC4)COC[C@H]5N)nc3N)cccc21', 'GI50', '16.1 µM'),
  ('COc1ccc(C(O)c2cc3c(N)c(C(=O)Nc4cccc(Br)c4)sc3nc2C)cc1 (centres undefined)', 'GI50', '22.3 µM'),
  ('CCS/C(Nc1ccccc1)=C(\C#N)C(=O)Nc1ccc(OC)cc1', 'GI50', '15.3 µM'),
  ('O=[N+]([O-])c1ccc2c(N=Nc3c(O)ccc4ccccc34)c(O)cc(S(=O)(=O)O)c2c1', 'GI50', '32.5 µM'),
  ('COC(=O)CCC1=C(C)c2cc3[n-]c(cc4nc(cc5[n-]c(cc1n2)c(CCC(=O)OC)c5C)C=C4C)cc3C.[Cd+2]', 'GI50', '4.69 µM'),
  ('O=C(NNS(=O)(=O)c1cc(C(F)(F)F)cc(C(F)(F)F)c1)c1cnn(-c2ccc(Cl)cc2)c1C(F)(F)F', 'GI50', '20.3 µM'),
  ('CC#CC(=O)N1CCC[C@H]1c1nc(-c2ccc(C(=O)Nc3ccccn3)cc2)c2c(N)nccn12', 'GI50', '47.3 µM'),
  ('Cn1c(=O)c2[nH]c(COc3ccc(C(C)(C)C)cc3)nc2n(C)c1=O', 'GI50', '28.8 µM'),
  ('C=C(C)C1/C=C(/C(C)C)CC[C@]2(C)O[C@@H]2CC[C@H](C)CC1=O (some centres undefined)', 'GI50', '> 100 µM'),
  ('COc1ccc(/C=C\c2cc(OC)c(OC)c(OC)c2)c(NS(=O)(=O)c2ccc(C)cc2)c1O', 'GI50', '0.602 µM');

====

# Tested on: U251 CNS
Classes used: active, inactive

INSERT INTO assay_data (molecule, classification) VALUES
  ('COc1ccc(NC(=O)c2cc(OC)c(OC)c(OC)c2)cc1O', 'inactive'),
  ('C=C(C)C1/C=C(/C(C)C)CC[C@]2(C)O[C@@H]2CC[C@H](C)CC1=O (stereo partly specified)', 'inactive'),
  ('O=c1[nH]c(-c2ccc(C(F)(F)F)cc2)nc2c1CSCC2', 'inactive'),
  ('Oc1ccccc1-n1c(-c2ccccc2)ccc1-c1ccccc1', 'inactive'),
  ('NC(CSC(c1ccccc1)(c1ccccc1)c1ccc2ccccc2c1)C(=O)O (stereo unspecified)', 'active'),
  ('Cn1cnc([N+](=O)[O-])c1Sc1ncnc2c1ncn2C1OC(CO)C(O)C1O (stereo unspecified)', 'inactive');

====

# Test system: MCF7 breast
# METHOD: NCI tumour cell line growth inhibition, 48 h
# key: entry, value: TGI
REPORTED_PROPERTY: TGI

INSERT INTO assay_data (molecule, reported_property, endpoint_value) VALUES
  ('Cn1c(=O)c2[nH]c(COc3ccc(C(C)(C)C)cc3)nc2n(C)c1=O', 'TGI', '62.8 µM'),
  ('COc1ccc([C@H]2O[C@@H](CO)C[C@]2(O)c2ccc(OC)cc2)cc1', 'TGI', '> 100 µM'),
  ('O=C(O)CCC1(c2ccccc2)NC(=O)NC1=O (centres undefined)', 'TGI', '> 100 µM'),
  ('CC/C=C\CCC/C=C1/C(=O)C=C[C@@H]1C/C=C\CCCC(=O)O', 'TGI', '16.8 µM'),
  ('C=C1C(C)C2C(Cc3ccccc3)NC(=O)C23C(OC(C)=O)/C=C/C(C)(O)CC(C)C/C=C/C3C1O (centres undefined)', 'TGI', '> 94.5 µM'),
  ('CCOC(=O)CCC(NC(=O)OCc1ccccc1)C(=O)NC(CCC(=O)OCC)C(=O)NC(CCC(=O)OCC)C(=O)NC(CCC(=O)OCC)C(=O)NC(CCC(=O)OCC)C(=O)OCC (centres undefined)', 'TGI', '> 100 µM'),
  ('NC(CCCCNc1ccn(C2OC(CO)C(O)C2O)c(=O)n1)C(=O)O (centres undefined)', 'TGI', '> 100 µM'),
  ('Cn1cnc([N+](=O)[O-])c1Sc1ncnc2c1ncn2C1OC(CO)C(O)C1O (centres undefined)', 'TGI', '> 100 µM'),
  ('CCSC1=CC(=O)c2ccccc2C1=O', 'TGI', '15.1 µM');

====

# Test system: SK-OV-3 ovarian
# METHOD: NCI tumour cell line growth inhibition, 48 h; in the data active means GI50 below about 0.43 µM; inactive means the rest
Outcomes: active, inactive

INSERT INTO measurements (compound, classification) VALUES
  ('NC(CSC(c1ccccc1)(c1ccccc1)c1ccc2ccccc2c1)C(=O)O (configuration not stated)', 'active'),
  ('O=C(NNS(=O)(=O)c1cc(C(F)(F)F)cc(C(F)(F)F)c1)c1cnn(-c2ccc(Cl)cc2)c1C(F)(F)F', 'inactive'),
  ('CC[C@H](C)[C@H](NC(=O)C12C3C4C1C1C2C3C41NC(C)=O)C(=O)N(C)[C@H](C[C@@H](OC(C)=O)c1nc(C(=O)N[C@@H](Cc2ccccc2)C[C@H](C)C(=O)OC)cs1)C(C)C (some centres not stated)', 'inactive'),
  ('O=C(/C=C/c1cccc(Cl)c1)c1ccc(Cl)cc1Cl', 'inactive'),
  ('C=C(C)C1/C=C(/C(C)C)CC[C@]2(C)O[C@@H]2CC[C@H](C)CC1=O (some centres not stated)', 'inactive'),
  ('O=C1/C(=C/c2cccs2)CCC/C1=C\c1cccs1', 'inactive'),
  ('COc1ccc(NC(=O)c2cc(OC)c(OC)c(OC)c2)cc1O', 'inactive');

====

# Tested on: SK-MEL-2 melanoma
# METHOD: NCI tumour cell line growth inhibition, 48 h
Reported TGI by item:
REPORTED_PROPERTY: TGI (µM)

INSERT INTO measurements (compound, units_label, qualifying_sign, endpoint_value) VALUES
  ('COC/C=C\[C@@]1(O)CCCC[C@@H]1CC(OC)OC', 'µM', '>', 100),
  ('Nc1c(C(=O)c2ccccc2)[nH]c(NCc2ccccc2)c1C(=S)Nc1ccccc1', 'µM', '>', 100),
  ('CC(=O)OC[C@@]12C[C@H]3C(=O)C(C)(C)C[C@H]3[C@]1(C)[C@@H](OC(C)=O)[C@]1(O)[C@H]([C@@H](OC(=O)c3ccccc3)[C@@H](C)[C@H]1OC(C)=O)[C@H]2OC(C)=O', 'µM', '>', 20),
  ('COc1cc2c(cc1C)n(O)c(C)c(C(=O)C/C(=N/NC(=O)C[N+](C)(C)C)C(=O)Nc1cccc(Cl)c1C)[n+]2=O', 'µM', '>', 100),
  ('O=C(NC(Nc1ccc(F)c(Cl)c1)(C(F)(F)F)C(F)(F)F)C(C(F)(F)F)C(F)(F)F', 'µM', '=', 44.5),
  ('O=C1c2cc(CCl)sc2C(=O)c2ccsc21', 'µM', '=', 0.42),
  ('c1ccc(-c2cc(-c3cc(-c4ccccc4)n(-c4ccccc4)n3)nn2-c2ccccc2)cc1', 'µM', '>', 100),
  ('O=C1/C(=C/c2cccs2)CCC/C1=C\c1cccs1', 'µM', '>', 100),
  ('COC(=O)C1=C(O)C(C(=O)OC)[C@]2(O)[C@H](C(=O)OC)[C@H]1C[C@@H](c1ccc(OC)cc1)[C@H]2C(=O)OC (stereo partly drawn)', 'µM', '=', 56.3),
  ('O=C(/C=C/c1cccc(Cl)c1)c1ccc(Cl)cc1Cl', 'µM', '=', 33),
  ('CCOC(=O)CCC(NC(=O)OCc1ccccc1)C(=O)NC(CCC(=O)OCC)C(=O)NC(CCC(=O)OCC)C(=O)NC(CCC(=O)OCC)C(=O)NC(CCC(=O)OCC)C(=O)OCC (stereo not drawn)', 'µM', '>', 100),
  ('COC(=O)CCC1=C(C)c2cc3[n-]c(cc4nc(cc5[n-]c(cc1n2)c(CCC(=O)OC)c5C)C=C4C)cc3C.[Cd+2]', 'µM', '=', 19.1),
  ('O=C(NNS(=O)(=O)c1cc(C(F)(F)F)cc(C(F)(F)F)c1)c1cnn(-c2ccc(Cl)cc2)c1C(F)(F)F', 'µM', '=', 34.7),
  ('CCC1(OC(C)=O)C(=O)OCc2c1cc1n(c2=O)Cc2cc3ccccc3nc2-1 (stereo not drawn)', 'µM', '>', 100),
  ('COC1=C(OC)CCC(/C(C#N)=C/c2ccc(OC)c(OC)c2)=C1', 'µM', '>', 100),
  ('CCCCCCCSCC(O)COC(c1ccccc1)(c1ccccc1)c1ccccc1 (stereo not drawn)', 'µM', '=', 52.5),
  ('O=C(/C=C/c1ccc(O)c(O)c1)OCCOC(=O)/C=C/c1ccc(O)c(O)c1', 'µM', '=', 45.8),
  ('CCc1cccc(C)c1NC(=O)NS(=O)(=O)c1ccc(C)cc1', 'µM', '>', 100);
